# TARGET OR SYSTEM: rhesus LIV-1 (rhesus, UniProt H9FSJ2 30-735)
# Sequence (H9FSJ2 entry or part of it): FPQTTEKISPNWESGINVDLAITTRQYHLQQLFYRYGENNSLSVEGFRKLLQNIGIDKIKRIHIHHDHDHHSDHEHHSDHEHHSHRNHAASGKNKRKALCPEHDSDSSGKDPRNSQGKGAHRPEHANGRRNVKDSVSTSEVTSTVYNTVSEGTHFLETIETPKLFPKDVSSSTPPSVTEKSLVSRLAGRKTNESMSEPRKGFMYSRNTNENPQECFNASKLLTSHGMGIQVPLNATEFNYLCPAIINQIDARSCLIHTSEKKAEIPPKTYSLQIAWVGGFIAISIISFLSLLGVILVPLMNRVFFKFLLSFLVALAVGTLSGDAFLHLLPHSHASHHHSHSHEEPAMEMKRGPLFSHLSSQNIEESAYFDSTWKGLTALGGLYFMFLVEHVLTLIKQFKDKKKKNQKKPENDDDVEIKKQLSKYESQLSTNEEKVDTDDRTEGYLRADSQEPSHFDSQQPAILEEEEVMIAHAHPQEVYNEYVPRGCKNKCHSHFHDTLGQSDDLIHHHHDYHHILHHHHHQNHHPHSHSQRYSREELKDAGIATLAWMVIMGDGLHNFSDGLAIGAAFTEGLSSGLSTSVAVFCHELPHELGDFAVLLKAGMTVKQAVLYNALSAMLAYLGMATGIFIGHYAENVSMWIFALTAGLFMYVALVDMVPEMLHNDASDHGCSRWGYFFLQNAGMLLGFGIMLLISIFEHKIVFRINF
# ASSAY COMMENT: FACS, HEK293/Rhe_LIV-1 cells
Record form. Attribute: EC50. Fill in for each entry.
Please reply with the bare figure in nM and do not write the unit itself.

# input Bench note: what EC50 did 5D6B10.Z7 (antibody, V domains shown) VH: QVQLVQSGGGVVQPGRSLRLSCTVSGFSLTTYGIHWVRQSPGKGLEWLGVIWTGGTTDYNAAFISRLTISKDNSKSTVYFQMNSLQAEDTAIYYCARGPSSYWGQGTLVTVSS VL: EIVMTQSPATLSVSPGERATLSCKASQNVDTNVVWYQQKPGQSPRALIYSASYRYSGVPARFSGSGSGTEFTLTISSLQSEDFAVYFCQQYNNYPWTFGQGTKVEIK show?
# output 0.3

# input // query: 124H4D11.p2.z4 (antibody, V domains shown) VH: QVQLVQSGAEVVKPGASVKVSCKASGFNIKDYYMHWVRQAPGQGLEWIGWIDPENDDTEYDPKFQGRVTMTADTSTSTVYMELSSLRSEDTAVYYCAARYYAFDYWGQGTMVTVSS VL: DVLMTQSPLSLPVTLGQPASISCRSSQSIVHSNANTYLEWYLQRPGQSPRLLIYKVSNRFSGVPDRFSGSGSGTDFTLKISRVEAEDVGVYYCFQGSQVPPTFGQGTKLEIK
# output 0.07

# input What would you report for 5D6B10 (antibody, V domains shown, Tested as chimeric antibody) VH: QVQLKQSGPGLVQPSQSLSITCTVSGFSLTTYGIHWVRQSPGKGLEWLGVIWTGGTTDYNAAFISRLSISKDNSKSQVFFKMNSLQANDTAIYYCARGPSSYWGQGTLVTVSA VL: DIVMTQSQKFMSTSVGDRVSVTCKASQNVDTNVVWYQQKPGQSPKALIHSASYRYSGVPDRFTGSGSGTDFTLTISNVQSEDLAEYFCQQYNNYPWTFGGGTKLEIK ?
# output 0.27

# input Now the binder 290F10G10 (antibody, V domains shown, Tested as chimeric antibody) VH: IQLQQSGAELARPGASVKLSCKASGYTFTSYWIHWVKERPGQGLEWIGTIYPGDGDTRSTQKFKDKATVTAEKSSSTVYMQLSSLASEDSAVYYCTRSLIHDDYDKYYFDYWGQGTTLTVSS VL: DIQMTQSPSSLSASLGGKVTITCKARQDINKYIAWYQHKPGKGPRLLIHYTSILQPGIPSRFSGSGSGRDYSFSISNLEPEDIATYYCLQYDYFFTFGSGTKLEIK
# output 0.22
